Values from patent US7470715B2

Molecular target: ligand binding domain of the estrogen receptor beta chain (ERβLBD) that contained a point mutation at amino acid residue 418 (pm418) (Homo sapiens, UniProt Q92731)
Assay: ER agonist cell assay (ERβ), Huh-7 co-transfection, luciferase
Format: cell-based
Conditions: percent of the maximum estradiol fold change; Huh-7, pG5luc and ERβLBD(pm418)
parameter: ERβ % of Max E2 Response (%)
Please reply with the bare figure in % and do not write the unit itself.

Examples from the recorded data:
Cl.Oc1ccc(-c2noc(C3(CNc4ccc5c(c4)CCC5)CC3)c2-c2ccccc2)cc1; 5.5
COCOCC1(c2onc(-c3ccc(O)cc3)c2-c2ccccc2)CC1; 1.18
CC(=O)OCC1(c2onc(-c3ccc(O)cc3)c2-c2ccccc2)CC1; 65.8

Return reported ERβ % of Max E2 Response; argument: `Cc1noc(C)c1C(=O)OCC1(c2onc(-c3ccc(O)cc3)c2-c2ccccc2)CC1`
3
